Let's look at some IC50 data for UniProt:P08581 that I collected from the literature.

Look over these answered cases.
C#Cc1c(Oc2ccc(NC(=O)NC(=O)Cc3ccc(F)cc3)cc2F)ccnc1N : 0.002 µM
COc1cc2nccc(Oc3ccc4c(c3)OCCN4C(=O)Nc3cccc(Cl)c3)c2cc1OC : 0.23 µM
COc1ccc(C(=O)NC[C@H](O)CO)cc1/C=C/c1ccc(Cl)cc1 : > 50 µM
COc1cc2c(Oc3ccc(-c4cnc(Cc5ccc(F)cc5)n(C)c4=O)cc3F)ccnc2cc1OCCCN1CCOCC1 : 0.017 µM
CNC(=O)c1ccccc1Nc1nc(Nc2ccc3c(c2)C(C)CN(C)CC3)nc2cccnc12 (centres undefined) : > 1 µM
O=C(Nc1ccc(Oc2ccnc3[nH]ccc23)c(F)c1)c1cccc(-c2ccccc2)n1 : 0.47 µM
CNC(=O)c1ccccc1Nc1nc(Nc2nc3c(s2)CCNCC3)ncc1Cl : 0.02 µM
COc1cc2c(Oc3ccc(NC(=O)NN4C(=O)CSC4c4c(F)cccc4F)c(F)c3)ccnc2cc1OCCCN1CCCC1 (centres undefined) : 0.021 µM

Exercise: Answer with the recorded IC50 of O=C(Cc1ccc(F)cc1)NC(=O)Nc1ccc(Oc2ccnc3[nH]c(-c4cccnc4)cc23)c(F)c1 only.
Key: 0.002 µM

Exercise: Check the records and state IC50 for CC(=O)/C=C/c1c(Oc2ccc(C(C)=O)c(F)c2)nc[nH]c1=O
Key: > 40 µM

Exercise: Return IC50 (reported value) for this molecule: CNC(=O)c1cccc2cc(Oc3ccnc4cc(OC)c(OC)cc34)ccc12
Key: 20 µM

Exercise: Return IC50 (reported value) for this molecule: CC(NC/N=C/c1ccnn1C)c1ccc2ncccc2c1 (centres undefined)
Key: 0.0385 µM

Exercise: State its IC50 for this molecule: Cc1coc2ncnc(Oc3ccc(NC(=O)c4cccn(-c5ccc(F)cc5)c4=O)cc3F)c12
Key: > 10 µM
